Hi there, I'd appreciate the recorded HRBC membrane stabilization (percentage protection against HRBC lysis) for every entry that follows.
# System: human red blood cells (HRBC)
# assayText: HRBC membrane stabilization method
# testConditions: 50 µM; mean ± SD (n = 3)

Worked cases, HRBC membrane stabilization (percentage protection against HRBC lysis) given:
>>> print(df.to_string())
                                   compound  reportedresult
0  C=CCc1ccc(OCC(=O)Nc2ccccc2C)c(OC)c1 [Compound 1c]   29.08 ± 0.46%
1  O=C(O)Cc1ccccc1Nc1c(Cl)cccc1Cl [Standard Diclofenac, Diclofenac, reference compound]   52.58 ± 0.48%
2  C=CCc1ccc(OCC(=O)Nc2cccc(C(F)(F)F)c2)c(OC)c1 [Compound 1d]   34.74 ± 0.56%
3  C=CCc1ccc(OCC(=O)Nc2ccc([N+](=O)[O-])cc2)c(OC)c1 [Compound 1b]   27.49 ± 0.36%

Dear colleague, could you send me HRBC membrane stabilization (percentage protection against HRBC lysis) for each of the items below? Thanks.
1. C=CCc1ccc(OCC(=O)Nc2ccccc2)c(OC)c1 [Compound 1a]
2. C=CCc1ccc(OCC(=O)Nc2ccccc2Cl)c(OC)c1 [Compound 1f]
3. C=CCc1ccc(OCC(=O)Nc2cccc(Cl)c2)c(OC)c1 [Compound 1e]

Resp:
["28.78 ± 0.66%", "49.50 ± 0.46%", "42.00 ± 0.56%"]
